- System: Lefty1
- Procedure Summary: Lefty1 binders on small-molecule microarrays, primary screen, biochemical, small-molecule microarray, 635/667 nm fluorescence (AID 1139)
- Study Conditions: small-molecule microarray binding, fluorescence 635/667; higher = more signal
We'd kindly ask you to apply these composite z-score classes: bin A (below -0.08), bin B (-0.08 to below 0.5), bin C (0.5 or more)

Field: example entries. Status: answers known.
Molecule	Discrete Label
CC1(C)C2C=C(C(O)C3C=CC4C(=O)NC(=O)C4N3Nc3ccc(Cl)cc3Cl)C[C@@H]1C2 (stereo not given in full)	bin B
C=CCC(OC(C)=O)[C@@H]1[C@@H](N(Cc2ccc(-c3cccc(C(F)(F)F)c3)o2)C(=O)c2ccc(C)cc2)c2cc(OCCCO)ccc2N1C(=O)Cc1ccc2ccccc2c1 (stereo not given in full)	bin A
CC(C)C(O)C1C=CC2C(=O)NC(=O)C2N1Nc1ccc(Cl)cc1Cl (stereo not given)	bin A
CC(C)N1C(=O)C[C@@](C(=O)NCC(F)(F)F)(c2ccc([N+](=O)[O-])cc2)[C@H]1c1ccc(CO)cc1	bin B

Ask: Just checking, what class would you give CCCC[C@@H]1C[C@H]1[C@@H](NC(=O)c1ccco1)c1ccc(-c2ccccc2)cc1 here?
Result: bin B

Ask: Just checking, what class would you give COc1ccc(CCNC(=O)[C@@H]2c3ccccc3C(=O)N(Cc3ccccc3Cl)[C@H]2c2ccc(CO)cc2)cc1 here?
Result: bin A

Ask: Just checking, what class would you give O=C(CS)NCCCCCCNC(=O)[C@@H]1C[C@@H]2C(=O)NCC(=O)N2[C@@H]1c1cccc(OCCO)c1 here?
Result: bin A

Ask: Just checking, what class would you give O=C1O[C@H](c2ccccc2)[C@H](c2ccccc2)N2[C@H]1[C@@H](C(=O)N1CCCCCCC1)[C@]1(C(=O)Nc3ccc(C#CC4=CCCCC4)cc31)[C@H]2c1ccc(OCCO)cc1 here?
Result: bin C

Ask: Just checking, what class would you give C=CCNC(=O)[C@@H]1[C@H]2C(=O)O[C@H](c3ccccc3)[C@H](c3ccccc3)N2[C@H](c2ccc(O)cc2)[C@@]12C(=O)Nc1ccc(C#CCNC(N)=O)cc12 here?
Result: bin C

Ask: Just checking, what class would you give O=C1C2C=CC(C(O)c3cccc4ccccc34)N(Nc3ccccc3F)C2C(=O)N1c1ccccc1 (stereo not given) here?
Result: bin B

Ask: Just checking, what class would you give COC(=O)C(CC#Cc1ccc2c(c1)[C@]1(C(=O)N2)[C@H](c2ccc(OCCO)cc2)N2[C@H](c3ccccc3)[C@H](c3ccccc3)OC(=O)[C@H]2[C@@H]1C(=O)N1CCc2cc(OC)c(OC)cc2C1)C(=O)OC here?
Result: bin C

Ask: Just checking, what class would you give OCCCC1=CC(c2cccs2)N(Cc2cc3c(cc2Br)OCO3)CC1 (stereo not given) here?
Result: bin B

Ask: Just checking, what class would you give O=C1OCCC/C=C\[C@H]2OC34C=CCN(Cc5ccccc5)C(=O)[C@H]3N(CCCO)C(=O)[C@@H]4C12 (stereo not given in full) here?
Result: bin A

Ask: Just checking, what class would you give COCCOC(=O)N1C(=O)[C@@]2(c3cc(C#Cc4ccc(OC)cc4)ccc31)[C@H](c1ccc(OCCO)cc1)N1[C@H](c3ccccc3)[C@H](c3ccccc3)OC(=O)[C@H]1[C@@H]2C(=O)N1CCN(c2ncccn2)CC1 here?
Result: bin C
